protocolDescription: reduction of CTGF mRNA in DLD1 cells – DLD1 colon cancer cells, RT-qPCR, single point, primary screen (AID 743449);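 further: 0% = neutral control wells and 100% = dasatinib control wells; higher means stronger suppression of CTGF expression like dasatinib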
assaySetup: 24 h, at 12.5 µM, active compounds read high
About 90 (0.9%) of roughly 9,900 compounds were called active. Inconclusive results (about 2%) are left out. For the sample, actives were picked, then their nearest neighbours and some compounds at random.
measurementName: inhibition (%)
Answers are plain numbers, in %.

Answered cases to consult:
| smi | inhibition / % |
| --- | --- |
| C/C=C/c1ccc([C@H]2[C@@H](CO)N3CCCCN(C(=O)Cc4cccnc4)C[C@@H]23)cc1 | -13.7 |
| O=C(O)[C@H]1[C@H](CO)[C@H]2Cn3c(ccc(-c4ccncc4)c3=O)[C@@H]1N2S(=O)(=O)c1ccccc1F | -4.67 |

Would you kindly look at the next entry?
Quick one: inhibition of C/C=C/c1ccc([C@H]2[C@H](CO)N3CCCCN(C(=O)Cc4cccnc4)C[C@@H]23)cc1 ?
13.9
